Tested on: Escherichia coli
method notes: Antimicrobial activity against Escherichia coli tolC- by broth microdilution/CLSI method
Format: functional
measurement conditions: Escherichia coli; read-out: MIC
Kindly apply the following: met if MIC is less than 0.6 µg/mL, not met in every other case.

Challenge: Would you kindly verify if MIC of "CO[C@H]1CN(c2nc(-c3cn(C)cn3)c(C(=O)O)s2)CC[C@H]1NC(=O)c1[nH]c(C)c(Cl)c1Cl" is strictly less than 0.6 µg/mL?
Response given: met

Challenge: Would you kindly verify if MIC of "Cc1[nH]c(C(=O)N[C@@H]2CCN(c3ncc(C(=O)O)s3)CC23OCCCO3)c(Cl)c1Cl" is strictly less than 0.6 µg/mL?
Response given: not met

Challenge: Would you kindly verify if MIC of "C=C1COC2(CN(c3ncc(C(=O)O)s3)CC[C@H]2NC(=O)c2[nH]c(C)c(Cl)c2Cl)OC1" is strictly less than 0.6 µg/mL?
Response given: met

Challenge: Would you kindly verify if MIC of "CO[C@H]1CN(c2nc(C)c(C(=O)O)s2)CC[C@H]1NC(=O)c1[nH]c(C)c(Cl)c1Cl" is strictly less than 0.6 µg/mL?
Response given: met

Challenge: Would you kindly verify if MIC of "CO[C@H]1CN(c2nc(-c3ccncn3)c(C(=O)O)s2)CC[C@H]1NC(=O)c1[nH]c(C)c(Cl)c1Cl" is strictly less than 0.6 µg/mL?
Response given: met

Challenge: Would you kindly verify if MIC of "CO[C@H]1CN(c2nc(C(=O)NN3CCOCC3)c(C(=O)O)s2)CC[C@H]1NC(=O)c1[nH]c(C)c(Cl)c1Cl" is strictly less than 0.6 µg/mL?
Response given: not met

Challenge: Would you kindly verify if MIC of "COCCNC(=O)c1nc(N2CC[C@@H](NC(=O)c3[nH]c(C)c(Cl)c3Cl)[C@@H](OC)C2)sc1C(=O)O" is strictly less than 0.6 µg/mL?
Response given: not met

Challenge: Would you kindly verify if MIC of "CO[C@H]1CN(c2nc(-c3cncc(OCCN(C)C)n3)c(C(=O)O)s2)CC[C@H]1NC(=O)c1[nH]c(C)c(Cl)c1Cl" is strictly less than 0.6 µg/mL?
Response given: met
